measurement name: melting point (°C)

# example entries with known answers
compound | melting point, °C
COc1ccc(OC)c(C(=O)C(Cc2ccccc2)CN(C)C)c1.Cl (racemic) [Example 8] | 149
COc1cccc(C(=O)C(Cc2ccccc2F)CN(C)C)c1.Cl (racemic) | 111
COc1ccccc1C(=O)C(Cc1ccccc1)CN(C)C.Cl (racemic) | 159
CN(C)CC(Cc1ccccc1)C(=O)c1cccc(Cl)c1Cl.Cl (racemic) | 114
COc1cccc(C(=O)C(Cc2ccc(F)c(F)c2)CN(C)C)c1.Cl (racemic) | 128

a. CN(C)CC(Cc1ccccc1)C(=O)c1ccc(F)cc1Cl.Cl (racemic)
b. CN(C)CC(Cc1ccccc1)C(=O)c1cccc(C(F)(F)F)c1.Cl (racemic)
(Q) Quick one: lower melting point, a or b ? Please respond with the label that marks your chosen entry.
(A) b
(b: 104 °C, a: 150.3 °C)

====

# System: phenylquinone-induced writhing reactions in mice
# measurement notes: Phenylquinone-induced writhing test in mice
# Assay type: in vivo
# condition context: Mus musculus, iv; male mice, 10 mg/kg i.v.; phenylquinone i.p. 10 minutes after test substance; writhing counted 5-20 minutes after phenylquinone
Where a name gives a salt, the structure may show the parent alone.
Reported inhibition in vivo at 10 mg/kg by item:
Hi! Could you send only the number? It should be in %, unit omitted.

# example entries with known answers
compound | inhibition in vivo at 10 mg/kg / %
COc1ccc(C(=O)C(Cc2ccccc2)CN(C)C)c(C)c1C (racemic) [Example 71, hydrochloride] | 94
CN(C)CC(Cc1ccccc1)C(=O)c1ccc2cc(O)ccc2c1.Cl (racemic) [Example 29, hydrochloride] | 82
C/C=C(\c1cccc(OC)c1)C(Cc1ccccc1)CN(C)C (racemic) [Example 65, hydrochloride] | 100

Entry COc1cc(OC)cc(C(=O)C(Cc2ccccc2)CN(C)C)c1 (racemic) [Example 7, hydrochloride] , inhibition in vivo at 10 mg/kg reported as 75

Entry CN(C)CC(Cc1ccccc1)C(=O)c1cccc(O)c1.Cl (racemic) [Example 6, hydrochloride] , inhibition in vivo at 10 mg/kg reported as 84

Entry COc1cccc(C(=O)[C@@H](Cc2ccccc2)CN(C)C)c1 [Example 11, hydrochloride] , inhibition in vivo at 10 mg/kg reported as 90

Entry COc1cccc(C(=O)C(Cc2cccc(Cl)c2)CN(C)C)c1 (racemic) [Example 72, hydrochloride] , inhibition in vivo at 10 mg/kg reported as 85

====

measurement name: melting point (°C)

molecule | quantitative readout
COc1cccc(C(=O)C(Cc2cccc(F)c2)CN(C)C)c1.Cl (racemic) | 141

I. COc1ccc(CC(CN(C)C)C(=O)c2cccc(OC)c2)cc1.Cl (racemic)
II. CC[C@@H](c1ccccc1)[C@H](CN(C)C)C(=O)c1cccc(OC)c1.Cl (racemic)
(Q) Quick one: lower melting point, I or II ? Please respond with the label that marks your chosen entry.
(A) II

====

measurement name: melting point (°C)

compound | unit label | melting point
CSc1cccc(C(=O)C(Cc2ccccc2)CN(C)C)c1.Cl (racemic) [Example 22] | °C | 118
CN(C)CC(Cc1ccccc1)C(=O)c1ccc2ccc3ccccc3c2c1.Cl (racemic) | °C | 138.7
CN(C)CC(Cc1ccccc1)C(=O)c1ccccc1O.Cl (racemic) | °C | 123
CN(C)CC(Cc1ccccc1)C(=O)c1ccc2ccccc2c1.Cl (racemic) | °C | 135.3
CN(C)CC(Cc1ccccc1)C(=O)c1cccc(C#N)c1.Cl (racemic) [Example 26] | °C | 154
CN(C)CC(Cc1ccccc1)C(=O)c1cccc(O)c1.Cl (racemic) [Example 6] | °C | 169
COc1cccc(C(=O)[C@@H](CN(C)C)[C@H](c2ccccc2)c2cccc(OC)c2)c1.Cl (racemic) | °C | 139.1
COc1ccc(C(=O)C(Cc2ccccc2)CN(C)C)c(OC)c1OC.Cl (racemic) | °C | 141
COc1cc(C(=O)C(Cc2ccccc2)CN(C)C)cc(OC)c1OC.Cl (racemic) | °C | 125
